The entries below come with measured Emax values attached.
Biological target: human mGlu5a receptor (Homo sapiens (Human))
Sequence (P41594 other isoform, or with tags, fused parts or gaps): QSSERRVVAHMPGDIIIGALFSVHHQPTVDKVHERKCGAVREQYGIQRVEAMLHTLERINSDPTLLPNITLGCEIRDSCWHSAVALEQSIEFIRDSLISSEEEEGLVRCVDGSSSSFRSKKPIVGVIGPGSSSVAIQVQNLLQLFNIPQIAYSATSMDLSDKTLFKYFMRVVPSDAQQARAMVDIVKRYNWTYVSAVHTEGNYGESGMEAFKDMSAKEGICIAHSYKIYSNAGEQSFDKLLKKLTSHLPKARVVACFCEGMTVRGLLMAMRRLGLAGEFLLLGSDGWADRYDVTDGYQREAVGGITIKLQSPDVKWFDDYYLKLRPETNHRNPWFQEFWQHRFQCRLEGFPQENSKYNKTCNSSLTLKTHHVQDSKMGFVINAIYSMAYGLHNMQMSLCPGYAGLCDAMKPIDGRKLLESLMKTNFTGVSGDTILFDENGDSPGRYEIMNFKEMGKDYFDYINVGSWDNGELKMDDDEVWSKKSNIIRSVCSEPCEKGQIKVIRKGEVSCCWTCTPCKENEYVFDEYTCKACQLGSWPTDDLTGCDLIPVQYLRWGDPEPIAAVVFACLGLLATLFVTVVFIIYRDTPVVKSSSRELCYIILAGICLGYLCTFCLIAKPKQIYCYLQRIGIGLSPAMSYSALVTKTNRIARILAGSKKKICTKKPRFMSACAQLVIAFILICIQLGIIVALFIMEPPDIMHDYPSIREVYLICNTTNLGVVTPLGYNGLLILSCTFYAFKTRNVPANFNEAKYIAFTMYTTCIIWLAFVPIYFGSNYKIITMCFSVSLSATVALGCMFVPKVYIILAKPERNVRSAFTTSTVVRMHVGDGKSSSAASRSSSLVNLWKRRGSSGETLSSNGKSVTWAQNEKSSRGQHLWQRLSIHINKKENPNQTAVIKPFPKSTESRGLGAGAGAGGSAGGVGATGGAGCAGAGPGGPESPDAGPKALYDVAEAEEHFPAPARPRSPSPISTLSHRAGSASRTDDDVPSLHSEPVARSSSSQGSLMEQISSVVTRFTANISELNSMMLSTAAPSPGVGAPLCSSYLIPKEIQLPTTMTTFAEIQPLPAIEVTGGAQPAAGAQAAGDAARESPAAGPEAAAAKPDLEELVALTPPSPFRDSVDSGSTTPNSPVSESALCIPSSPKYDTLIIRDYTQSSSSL
Test: Intracellular Ca2+ mobilization assay (mGlu5 PAM)
Assay type: cell-based
Conditions: maximal response in % of the maximal stimulatory effect obtained with saturating concentrations of L-glutamate; read-out: Eff. (%)
Endpoint label: Emax (%)

Compound: CC1(C)CCN(c2ccc(C#Cc3ccccc3)cn2)C(=O)C1 [Example 87]
Test system: human mGlu5a receptor (Homo sapiens (Human))
Data value: 89

Compound: O=C1OC2(CCC2)CN1c1ccc(C#Cc2ccccc2)cn1 [Example 10]
Test system: human mGlu5a receptor (Homo sapiens (Human))
Data value: 109

Compound: CC1(C)CN(c2ccc(C#Cc3ccccc3)cn2)C(=O)N1 [Example 15]
Test system: human mGlu5a receptor (Homo sapiens (Human))
Data value: 101

Compound: COC1C(=O)N(c2ccc(C#Cc3ccccc3)cn2)CC1(C)C (racemic) [Example 60]
Test system: human mGlu5a receptor (Homo sapiens (Human))
Data value: 89

Compound: COC1C(=O)N(c2ccc(C#Cc3ccc(F)cc3)cn2)CC1(C)C (racemic) [Example 66]
Test system: human mGlu5a receptor (Homo sapiens (Human))
Data value: 87

Compound: CC1(C)CC(=O)N(c2ccc(C#Cc3cccc(F)c3)cn2)C1 [Example 40]
Test system: human mGlu5a receptor (Homo sapiens (Human))
Data value: 100

Compound: CN1C(=O)N(c2ncc(C#Cc3ccccc3)cn2)CC1(C)C [Example 122]
Test system: human mGlu5a receptor (Homo sapiens (Human))
Data value: 36

Compound: CC1(C)CC(=O)N(c2cnc(C#Cc3cccc(F)c3)cn2)C1 [Example 160]
Test system: human mGlu5a receptor (Homo sapiens (Human))
Data value: 39

Compound: O=C1[C@H]2CCC[C@H]2N1c1ccc(C#Cc2cccnc2)cn1 (racemic) [Example 98]
Test system: human mGlu5a receptor (Homo sapiens (Human))
Data value: 73
